- Method description: Solubility in fasted state simulated intestinal fluid at pH 6.8
- Assay type: ADME
Observation type: solubility (µg/mL)

Answered examples (2):
>>> value_measured("O=C(N[C@H]1CC[C@H](c2nnc(-c3ccccc3)o2)CC1)[C@@H]1CCCN(Cc2nc3ccccc3c(=O)[nH]2)C1")
43
>>> value_measured("O=C(CCSc1nc2ccccc2c(=O)[nH]1)N[C@H]1CC[C@H](c2nnc(-c3ccccc3)o2)CC1")
7

I: O=C(CSc1nc2ccccc2c(=O)[nH]1)N[C@H]1CC[C@H](c2nnc(-c3ccccc3)o2)CC1
II: O=C(CCSc1nc2c(c(=O)[nH]1)CCCC2)N[C@H]1CC[C@H](c2nnc(-c3ccccc3)o2)CC1
III: O=C(CCSc1nccc(=O)[nH]1)N[C@H]1CC[C@H](c2nnc(-c3ccccc3)o2)CC1
Query string: Place the items in sequence of falling solubility. # answer = labels listed in requested order
Result string: III, II, I
(III: 53 µg/mL, II: 8 µg/mL, I: 1 µg/mL)
